Biological target: Receptor-interacting serine/threonine-protein kinase 2 (Homo sapiens)
Sequence (O43353 whole entry): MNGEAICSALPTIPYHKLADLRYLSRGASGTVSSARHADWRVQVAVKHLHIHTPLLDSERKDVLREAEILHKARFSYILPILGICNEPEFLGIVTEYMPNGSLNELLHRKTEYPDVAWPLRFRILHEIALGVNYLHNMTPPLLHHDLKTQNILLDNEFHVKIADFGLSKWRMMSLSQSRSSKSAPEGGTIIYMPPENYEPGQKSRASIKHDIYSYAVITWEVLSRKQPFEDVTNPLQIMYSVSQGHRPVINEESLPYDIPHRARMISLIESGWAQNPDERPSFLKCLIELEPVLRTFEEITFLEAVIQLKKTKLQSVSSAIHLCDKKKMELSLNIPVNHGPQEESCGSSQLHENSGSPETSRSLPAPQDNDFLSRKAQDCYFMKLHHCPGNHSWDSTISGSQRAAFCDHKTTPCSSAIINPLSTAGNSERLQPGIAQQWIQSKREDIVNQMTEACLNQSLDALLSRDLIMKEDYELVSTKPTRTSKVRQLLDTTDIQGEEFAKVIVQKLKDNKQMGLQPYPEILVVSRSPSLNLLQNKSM
Assay readout: IC50
Respond with a number, then the unit of measure.

Ask: Need IC50, item Nc1nc(N)c2nc(-c3cccc(Cl)c3)c(N)nc2n1 [Epiblastin A]
Result: 38.1 µM

----------
Target: Casein kinase I isoform epsilon (Homo sapiens)
Sequence (P49674 whole entry, canonical isoform): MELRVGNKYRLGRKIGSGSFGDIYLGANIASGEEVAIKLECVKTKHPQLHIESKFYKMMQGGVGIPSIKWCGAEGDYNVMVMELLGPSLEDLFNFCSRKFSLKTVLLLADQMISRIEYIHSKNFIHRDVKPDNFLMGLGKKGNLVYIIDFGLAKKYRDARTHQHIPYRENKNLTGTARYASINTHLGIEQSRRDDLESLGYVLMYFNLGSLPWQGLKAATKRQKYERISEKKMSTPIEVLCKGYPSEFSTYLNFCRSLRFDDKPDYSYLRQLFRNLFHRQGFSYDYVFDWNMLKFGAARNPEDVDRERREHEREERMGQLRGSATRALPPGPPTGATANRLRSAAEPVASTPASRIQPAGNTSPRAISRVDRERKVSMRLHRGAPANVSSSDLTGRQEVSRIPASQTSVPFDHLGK
Assay: KinaseGlo Plus Luminescent Assay
Settings: pH 7.5
Method: A stock solution of 5 % DMSO (BioReagent for molecular biology, Sigma Aldrich) in water was prepared. The CK1 substrate peptide RRKDLHDDEEDEAMSITA (Jena Bioscience, cat. no. PE-206, 2 mM stock solution in water) was diluted in water to a final concentration of 250 μM. CK1δ or CK1Ɛ kinases were diluted with CK1 dilution buffer to 50 ng / µL. In addition, fresh Reaction buffer was prepared containing 250 mM Tris-HCl (pH 7.5), 50 mM MgCl2, 5 mM DTT and 0.5 mg / mL bovine serum albumin (BSA). […]
Form field: IC50 (one value per entry).
Dear colleague, please return just the value in µM, with no unit written.

Answered examples (3):
Nc1nc(N)c2nc(-c3ccccc3)cnc2n1 [6-phenylpteridine-2,4-diamine (35)]: 6
Nc1nc(N)c2nc(-c3c(Cl)cccc3Cl)c(N)nc2n1: 38.9
Nc1nc(N)c2nc(-c3ccc(Cl)cc3Cl)c(N)nc2n1: 4.3

Ask: Need IC50, item Nc1nc(N)c2nc(-c3ccccc3)c(N)nc2n1 [Pteridine deriv. 11]
Result: 26.8

Ask: Need IC50, item Nc1nc(N)c2nc(-c3csc4ccccc34)c(N)nc2n1
Result: 0.6

Ask: Need IC50, item Nc1nc(N)c2nc(-c3cccnc3)c(N)nc2n1
Result: 15.5

Ask: Need IC50, item Nc1nc(N)c2nc(-c3c(F)cccc3F)c(N)nc2n1
Result: 51.5

Ask: Need IC50, item Nc1nc(N)c2nc(-c3cccc(F)c3)c(N)nc2n1
Result: 14.4

Ask: Need IC50, item Nc1cccc(-c2nc3c(N)nc(N)nc3nc2N)c1
Result: 12.4

Ask: Need IC50, item Nc1nc(N)c2nc(-c3ccccc3F)c(N)nc2n1
Result: 28.3

Ask: Need IC50, item Nc1nc(N)c2nc(-c3cccs3)c(N)nc2n1
Result: 8.1

Ask: Need IC50, item Nc1nc(N)c2nc(-c3cc(F)ccc3F)c(N)nc2n1
Result: 38.4

Ask: Need IC50, item COc1cccc(-c2nc3c(N)nc(N)nc3nc2N)c1
Result: 26.3

Ask: Need IC50, item Nc1nc(N)c2nc(-c3cccc(Oc4ccccc4)c3)c(Cc3ccccc3)nc2n1
Result: 6.6

Ask: Need IC50, item Nc1nc(N)c2nc(-c3cccc(Cl)c3)c(N)nc2n1 [Epiblastin A]
Result: 4.7
